Would you mind telling me the reported TGI of each entry?
test system: IGROV1 ovarian; test: NCI tumour cell line growth inhibition, 48 h

Give TGI for each listed item.
1. CCOC(=O)C1=C(C)NC2SC(=O)/C(=C\c3ccccc3Cl)N2C1c1ccccc1 (stereo unspecified)
2. O=c1[nH]c(=O)n(C2CC(O)C(CO)O2)cc1NN=NCCc1ccccc1 (stereo unspecified)
3. O=C1c2ccccc2C(=O)C2C1C1C(=O)c3ccccc3C(=O)C21 (stereo unspecified)

Solution:
1: > 100 µM; 2: > 100 µM; 3: > 100 µM

----------
system: UACC-62 melanoma; assay: NCI tumour cell line growth inhibition, 48 h
Consider the following molecules; for each one, report its GI50.

For orientation, consider the following solved cases.
[
  {
    "cpd smiles": "O=C(CCCn1c(=O)c2sc3ccccc3c2n2nnc(-c3ccccc3)c12)NCCc1cnc[nH]1",
    "system under test": "UACC-62 melanoma",
    "GI50": "1910 nM"
  },
  {
    "cpd smiles": "O=C(COc1ccc(/C=C2\\Oc3ccccc3C2=O)cc1)Nc1nccs1",
    "system under test": "UACC-62 melanoma",
    "GI50": "> 100000 nM"
  }
]

Provide reported GI50 for each item, in the same order as listed.
1. Cc1cc2cccnc2c2ncccc12
2. Cn1cc(C2=C(c3c4n(c5ccccc35)CCCC4)C(=O)NC2=O)c2ccccc21

Solution:
1. 1280 nM
2. 6320 nM

----------
Give measured TGI for each item. Keep answers brief.
test system: RXF 393 renal; assay: NCI tumour cell line growth inhibition, 48 h

Here is how some molecules turned out for TGI.
[
  {
    "molecule": "CC(C)(C)OC(=O)NC1CC=CCC1NC(=O)OC(C)(C)C (stereo not drawn)",
    "system under test": "RXF 393 renal",
    "TGI": "> 100 µM"
  },
  {
    "molecule": "COc1cc(-c2nn(-c3ccc(NC(=O)Nc4ccc(Cl)c(Cl)c4)cc3)cc2-c2ccncc2)ccc1Cl",
    "system under test": "RXF 393 renal",
    "TGI": "7.49 µM"
  }
]

Exercise: Read the entry `O=S1(=O)NNC(=NCc2ccc(Cl)c(Cl)c2)c2ccccc21` and write its reported TGI.
Solution: > 100 µM

----------
I'd appreciate it if you could supply TGI values for the items below.
system: SF-295 CNS; test: NCI tumour cell line growth inhibition, 48 h

The examples below pair each entry with its known result.
[
  {
    "molecule": "COc1cc(/C=N/Nc2ncnc3c2cnn3C(C)C)ccc1O",
    "system under test": "SF-295 CNS",
    "TGI": "> 25 µM"
  },
  {
    "molecule": "COc1ccc(N)c(C(O)CCNC(C)=O)c1 (stereo not drawn)",
    "system under test": "SF-295 CNS",
    "TGI": "> 100 µM"
  }
]

Exercise: Please supply the value of reported TGI for the item CC(C)(C)[Si](C)(C)OCC1CCC(n2cnc3c(=O)[nH]cnc32)O1 (stereo not drawn)
Solution: > 100 µM

----------
For each record, write down the corresponding TGI.
tested on: NCI-H522 lung; assay: NCI tumour cell line growth inhibition, 48 h

The following molecules have reported results that may help.
[
  {
    "cpd smiles": "O=C1NCN(c2ccccc2)C12CCN(CCc1ccc3[nH]c(=S)[nH]c3c1)CC2",
    "system under test": "NCI-H522 lung",
    "TGI": "> 100 µM"
  },
  {
    "cpd smiles": "CCOc1cc(-c2nc3ccccn3c2/N=C/c2cc([N+](=O)[O-])cc([N+](=O)[O-])c2O)ccc1O",
    "system under test": "NCI-H522 lung",
    "TGI": "> 100 µM"
  }
]

Please examine the following record next.
Exercise: Find TGI for `Clc1cc(OCc2nn3c(Cc4ccccc4)nnc3s2)ccc1OCc1nn2c(Cc3ccccc3)nnc2s1` on NCI-H522 lung and write it down.
Solution: > 100 µM

----------
tested on: OVCAR-4 ovarian; assay: NCI tumour cell line growth inhibition, 48 h
property name: TGI (µM)
Answers are plain numbers, in µM.

Please review the entries below; each comes with its answer.
[
  {
    "compound": "Cc1c(/C=N/NC(=S)Nc2cccc(Cl)c2)c(=O)n(-c2ccccc2)n1C",
    "TGI / µM": 40
  },
  {
    "compound": "CC(=O)NC1=C(C)C(=O)c2c(nc3n2CCC3OC(=O)c2ccccc2)C1=N (stereo not given)",
    "TGI / µM": 1.2
  },
  {
    "compound": "O=S(=O)(C(=Ic1ccccc1)S(=O)(=O)C(F)(F)C(F)(F)C(F)(F)C(F)(F)F)C(F)(F)C(F)(F)C(F)(F)C(F)(F)F",
    "TGI / µM": 14.7
  },
  {
    "compound": "CC(=O)Nc1ccc(-c2c3nc(c(-c4cc5ccccc5[n+](C)c4)c4ccc([nH]4)c(-c4ccc(NC(C)=O)cc4)c4nc(c(-c5cc6ccccc6[n+](C)c5)c5ccc2[nH]5)C=C4)C=C3)cc1",
    "TGI / µM": 30.3
  },
  {
    "compound": "CCCCCCCC(=O)OC[C@@H](C[As](=O)(O)O)OC(=O)CCCCCCC",
    "TGI / µM": 28.9
  }
]

Please give TGI for each item listed below.
1. CC(C)(N)CO[C@H]1C[C@H]2CC[C@@]1(C)C2(C)C
2. Cc1cc(C)nc(NS(=O)(=O)c2ccc(NN=c3c4ccccc4n(C)c4ccccc34)cc2)n1
3. Cc1csc(/C=N/NC(=O)c2nnn(-c3ccnc4c(C(F)(F)F)cccc34)c2C)c1
4. COc1cc(=O)oc(/C=C/C=O)c1C
5. O[C@@]1(c2cccs2)c2cccc(Cl)c2[C@](O)(c2cccs2)c2cccc(Cl)c21

Solution:
[74.5, 99.3, 37.4, 32.5, 40.9]

Please supply TGI for each of the following items, keeping them in order.
1. COC(=O)[C@H]1[C@H]2C[C@@H]3c4[nH]c5cc(OC)ccc5c4CCN3C[C@H]2C[C@@H](OC(=O)c2cc(OC)c(OC)c(OC)c2)[C@@H]1OC
2. COc1cc(-c2n/c(=C\c3c(O)[nH]c4ccc(Cl)cc34)cc3c2=Nc2ccccc2-3)cc(OC)c1OC

Solution:
1: 27.8; 2: 1.78

----------
tested on: RXF 393 renal; test: NCI tumour cell line growth inhibition, 48 h
property name: TGI

Field: example entries. Status: answers known.
[
  {
    "compound": "CCOc1cc(-c2nc3ccccn3c2/N=C/c2cc([N+](=O)[O-])cc([N+](=O)[O-])c2O)ccc1O",
    "TGI": "> 100 µM"
  },
  {
    "compound": "CC(CN(C)C)C(=O)c1ccccc1C(=O)O (stereo unspecified)",
    "TGI": "> 100 µM"
  },
  {
    "compound": "O=C(COc1ccc(/C=C2\\Oc3ccccc3C2=O)cc1)Nc1nccs1",
    "TGI": "15.1 µM"
  },
  {
    "compound": "COC(=O)CCC(C)[C@H]1CCC2C3C(C[C@H](OC(C)=O)[C@@]21C)[C@@]1(C)CCC2(C[C@H]1C[C@H]3OC(C)=O)OOC1(CCC(C)CC1)OO2 (stereo partly specified)",
    "TGI": "> 100 µM"
  }
]

Please supply TGI for each of the following items, keeping them in order.
1. CN(CCC#N)c1ccc(/C=C(\C#N)c2cccc(C(F)(F)F)c2)cc1
2. CC(=O)[CH-]C(=O)c1ccccc1.CC(=O)[CH-]C(=O)c1ccccc1.COc1cccc([O-])c1[O-].[Ti+4]

Solution:
["> 100 µM", "> 100 µM"]

----------
system: CCRF-CEM leukemia; experiment: NCI tumour cell line growth inhibition, 48 h
property name: TGI

Worked cases, TGI given:
[
  {
    "compound": "O=C1CSC(/C=C/c2ccccc2)N1c1ccc(-c2ccc(-n3c(-c4ccccc4)nc4ccccc4c3=O)cc2)cc1 (centres undefined)",
    "result": "64.5 µM"
  },
  {
    "compound": "CC(C)N(C(=O)C12C3C4C5C3C1(C(=O)N(C(C)C)C(C)C)C5(C#N)C42)C(C)C (centres undefined)",
    "result": "51.6 µM"
  },
  {
    "compound": "NC(N)=NS(=O)(=O)c1ccc(Nc2c3ccccc3nc3c(C(=O)N4CCN(CCO)CC4)cccc23)cc1",
    "result": "> 100 µM"
  },
  {
    "compound": "C#CCn1c(=O)ccn(/C(=C\\C(=O)OCC)C(=O)OCC)c1=O",
    "result": "> 20.9 µM"
  },
  {
    "compound": "COc1ccc(C(C#N)NC23CC4CC(CC(C4)C2)C3)cc1OC (centres undefined)",
    "result": "> 100 µM"
  },
  {
    "compound": "O=C(CC(=O)C(=O)Nc1ccccc1)CC(c1ccccc1)c1c(O)c2ccccc2oc1=O (centres undefined)",
    "result": "> 100 µM"
  },
  {
    "compound": "O=C1c2cccc3cccc(c23)C(=O)N1CCCNCCCCNCCCN1C(=O)c2cccc3cccc(c23)C1=O",
    "result": "0.205 µM"
  },
  {
    "compound": "O=C1c2ccccc2C(=O)C2C1C1C(=O)c3ccccc3C(=O)C21 (centres undefined)",
    "result": "> 100 µM"
  }
]

Could you now consider this next compound?
Exercise: Recall the reported TGI of `Cn1c(NN)nc(-c2ccc([N+](=O)[O-])cc2)c(C#N)c1=O` on CCRF-CEM leukemia and write it down.
Solution: > 100 µM
